All figures here come from the supplement of paper PMC7125110.

B1: glmS ribozyme (parent)
chain: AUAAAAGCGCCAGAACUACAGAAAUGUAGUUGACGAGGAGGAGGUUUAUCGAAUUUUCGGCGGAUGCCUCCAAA

# Variants of: B1
# TEST PROTOCOL: self-cleavage kobs at 640 uM GlcN6P; higher = faster cleavage; RNA array
# TEST PARAMETERS: with glucosamine-6-phosphate
This sample holds only a part of the variants without activity.
Parameter: self-cleavage kobs at 640 uM GlcN6P. Scope: all listed entries.
QUANTITY NAME: self-cleavage kobs at 640 uM GlcN6P

> print(dat)
                 mutant.code                        quantity.name  reported.measurement
 1       C10U C16U G32A C50G  self-cleavage kobs at 640 uM GlcN6P          0.000327 s⁻¹
 2                 G29A A53C  self-cleavage kobs at 640 uM GlcN6P          0.000185 s⁻¹
 3       G41A G51C G63U C70G  self-cleavage kobs at 640 uM GlcN6P           < 1e-05 s⁻¹
 4             G9A C10A U30C  self-cleavage kobs at 640 uM GlcN6P           < 1e-05 s⁻¹
 5            G13A A15C G60U  self-cleavage kobs at 640 uM GlcN6P           < 1e-05 s⁻¹
 6                 G41A U45A  self-cleavage kobs at 640 uM GlcN6P          0.000296 s⁻¹
 7                 A53U U56A  self-cleavage kobs at 640 uM GlcN6P           0.00169 s⁻¹
 8             A6C A12C G59C  self-cleavage kobs at 640 uM GlcN6P           < 1e-05 s⁻¹
 9                 A52G U54G  self-cleavage kobs at 640 uM GlcN6P          0.000183 s⁻¹
10                 A14C C50G  self-cleavage kobs at 640 uM GlcN6P          0.000625 s⁻¹
11            G40A G41C C61G  self-cleavage kobs at 640 uM GlcN6P           < 1e-05 s⁻¹
12                 A14G U65C  self-cleavage kobs at 640 uM GlcN6P          0.000445 s⁻¹
13                      G43C  self-cleavage kobs at 640 uM GlcN6P           < 1e-05 s⁻¹
14        G9C G40A G66U C68G  self-cleavage kobs at 640 uM GlcN6P           < 1e-05 s⁻¹
15            C11U C50U G60C  self-cleavage kobs at 640 uM GlcN6P           < 1e-05 s⁻¹
16       C61G A64U U65A C68U  self-cleavage kobs at 640 uM GlcN6P           < 1e-05 s⁻¹
17  A12G A42U G59U G63C C71U  self-cleavage kobs at 640 uM GlcN6P           < 1e-05 s⁻¹
18                 U30G U31G  self-cleavage kobs at 640 uM GlcN6P            0.0102 s⁻¹
19                  G7C A64C  self-cleavage kobs at 640 uM GlcN6P           < 1e-05 s⁻¹
20                  A6U C58U  self-cleavage kobs at 640 uM GlcN6P           < 1e-05 s⁻¹
21       G13C C34G G35C A52C  self-cleavage kobs at 640 uM GlcN6P           < 1e-05 s⁻¹
22            G37A A48C U55G  self-cleavage kobs at 640 uM GlcN6P           < 1e-05 s⁻¹
